Tested on: MDA-MB-435
experiment.notes: NCI tumour cell line growth inhibition, 48 h
Calls of active or inactive are those of the source. No stated cut-off is given here; in the data, active = GI50 up to about 1.1 µM and inactive = higher.
Hi! Could you answer with just one of these? Yes for active, No for inactive

Q: // return assay outcome for COc1ccc2oc(=N)c(C(=O)Nc3cccc4ccccc34)cc2c1
A: Yes

Q: One more compound: Cc1cc(=O)oc2c3c(ccc12)OC(c1ccc(Br)cc1)CC3=O (stereo not drawn)
A: No

Q: One more compound: CN(O)C(=S)c1ccccc1
A: No

Q: One more compound: C=Cc1ccccc1C1(O)C=CC(OC)(OC)C=C1
A: No

Q: One more compound: COc1cc(/C=C2/SC(c3ccccc3)N(c3ccccc3)C2=O)cc(OC)c1OC (stereo not drawn)
A: No

Q: One more compound: N#Cc1c(N)nc(SCc2ccccc2)c(C#N)c1-c1ccc(O)cc1
A: No

Q: One more compound: O=C(COc1ccc(OCC(=O)N2C(=O)CC(=O)N(c3ccccc3)C2=S)cc1)N1C(=O)CC(=O)N(c2ccccc2)C1=S
A: No

Q: One more compound: CCOC(=O)Nc1nn(C)/c(=N/Cc2ccccc2)s1
A: No
